// data source = patent US20260242478A1

Entries and their Phage binding ELISA signal, Anti-PSMA Fab values follow.
- measurement_target: T1, PSMA Fab (006 PSMA Fab) (Fab biotinylated for capture on neutravidin plates (site not given))
- T1 construct: also called Anti-PSMA Fab; anti-PSMA Fab
- experiment_summary: clonal phage ELISA; biotinylated PSMA Fab on neutravidin plate, blocking buffer alone; anti-M13-HRP detection;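 also: clonal phage applied as crude supernatants to wells preincubated with blocking buffer, binding read by ELISA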
Where no end group is shown, it is not given here.
Number only, no unit.

binder	recorded_result
EDVRCVPAWMCNGF (cysteine pairing not given here; also: fused to pIII of bacteriophage, also called Peptide-180 library clone; not shown: pIII filament protein of the bacteriophage) [Phage-3449]	1.75
HIMQCKPAWMCSGL (also called Peptide-180 library clone; not shown: pIII filament protein of the bacteriophage) [Phage-3456]	1.74

Report Phage binding ELISA signal, Anti-PSMA Fab for VEKMCRPLWMCHGF (also called Peptide-180 library clone; not shown: pIII filament protein of the bacteriophage) [Phage-3457] please.
1.74
